For each of the substances below, state its MIC P. aeruginosa ATCC 15442, in parentheses.
Tested on: P. aeruginosa ATCC 15442
Type: cell-based
CONDITION_SET: numbers in parentheses are micromolar concentrations

## Input State the measured MIC P. aeruginosa ATCC 15442, in parentheses (P. aeruginosa ATCC 15442) of FLGGLIKPVPAMICAVRKKC-OH [RN2, ranalexin analog]
## Output >250 (>116) micromolar

## Input State the measured MIC P. aeruginosa ATCC 15442, in parentheses (P. aeruginosa ATCC 15442) of FLGGLIKRPPAMICAVRKKC-OH [RN4, ranalexin analog]
## Output >250 (>113) micromolar

## Input State the measured MIC P. aeruginosa ATCC 15442, in parentheses (P. aeruginosa ATCC 15442) of FLGGLIKRVPAMICAVRKKC-OH [RN3, ranalexin analog]
## Output >250 (>113) micromolar

## Input State the measured MIC P. aeruginosa ATCC 15442, in parentheses (P. aeruginosa ATCC 15442) of FLGGLIKIVPAMICAVRKKC-OH [RN1, ranalexin analog]
## Output >250 (>115.7) micromolar
